Reference for the values: the kinase profiling compilation of Christmann-Franck et al. (2016)

Please go through the items and note down their kinase still bound, per cent of control.
system: PIK3CA (human), P42336 [M1043I]; experiment: KINOMEscan competition binding; settings: compound 10.0 µM
Sequence (P42336 whole entry M1043I, looked up): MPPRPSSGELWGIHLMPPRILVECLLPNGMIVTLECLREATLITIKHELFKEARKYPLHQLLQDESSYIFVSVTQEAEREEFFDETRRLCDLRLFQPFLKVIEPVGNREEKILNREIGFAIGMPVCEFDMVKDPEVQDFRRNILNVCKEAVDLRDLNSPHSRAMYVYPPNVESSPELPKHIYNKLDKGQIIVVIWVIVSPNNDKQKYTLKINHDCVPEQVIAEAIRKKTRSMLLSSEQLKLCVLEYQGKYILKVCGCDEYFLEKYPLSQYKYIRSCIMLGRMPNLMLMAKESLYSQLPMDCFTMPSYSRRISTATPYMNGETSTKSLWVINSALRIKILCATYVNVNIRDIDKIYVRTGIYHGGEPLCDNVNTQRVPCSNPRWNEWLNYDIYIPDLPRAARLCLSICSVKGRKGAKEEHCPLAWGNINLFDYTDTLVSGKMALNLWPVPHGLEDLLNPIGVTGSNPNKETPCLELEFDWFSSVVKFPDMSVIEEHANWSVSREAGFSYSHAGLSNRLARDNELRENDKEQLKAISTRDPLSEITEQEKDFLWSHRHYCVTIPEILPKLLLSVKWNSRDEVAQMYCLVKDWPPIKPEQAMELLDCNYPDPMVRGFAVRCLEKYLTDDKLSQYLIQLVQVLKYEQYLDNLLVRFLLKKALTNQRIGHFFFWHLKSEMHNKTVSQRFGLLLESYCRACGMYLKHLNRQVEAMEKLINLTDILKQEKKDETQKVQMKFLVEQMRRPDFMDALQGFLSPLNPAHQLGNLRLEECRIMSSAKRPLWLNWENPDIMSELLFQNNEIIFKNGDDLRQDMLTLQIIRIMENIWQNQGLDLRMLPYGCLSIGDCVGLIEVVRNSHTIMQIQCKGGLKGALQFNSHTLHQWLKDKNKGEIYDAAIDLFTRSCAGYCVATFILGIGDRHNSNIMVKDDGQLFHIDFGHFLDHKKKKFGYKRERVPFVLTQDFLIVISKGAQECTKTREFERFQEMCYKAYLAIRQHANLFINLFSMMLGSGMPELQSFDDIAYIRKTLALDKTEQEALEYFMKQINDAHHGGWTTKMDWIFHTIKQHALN
Give bare numbers, in %.

Please review the following examples before continuing.
{"COMPOUND": "N#CCNC(=O)c1ccc(-c2ccnc(Nc3ccc(N4CCOCC4)cc3)n2)cc1", "kinase still bound, per cent of control, %": 100}
{"COMPOUND": "O=c1cc(N2CCOCC2)oc2c(-c3cccc4c3sc3ccccc34)cccc12", "kinase still bound, per cent of control, %": 17}
{"COMPOUND": "CC1=C(C(=O)Nc2cc3cn[nH]c3cc2F)C(c2ccc(C(F)(F)F)cc2)CC(=O)N1 (stereo not given)", "kinase still bound, per cent of control, %": 93}
{"COMPOUND": "N#Cc1c(NC(=O)c2cccc3ccccc23)sc2c1CCCC2", "kinase still bound, per cent of control, %": 100}
{"COMPOUND": "COc1cc2ncnc(Nc3cccc(Cl)c3)c2cc1OC", "kinase still bound, per cent of control, %": 76}
{"COMPOUND": "COc1ccc(N(C(=O)Oc2c(C)cccc2C)c2ccnc(Nc3ccc(N4CCN(C)CC4)cc3)n2)c(OC)c1", "kinase still bound, per cent of control, %": 99}
{"COMPOUND": "O=c1[nH]c2ccccc2n1C1CCN(Cc2ccc(-c3nc4cc5[nH]cnc5cc4nc3-c3ccccc3)cc2)CC1", "kinase still bound, per cent of control, %": 100}
{"COMPOUND": "COc1cc2ncnc(-n3nc(-c4ccccn4)nc3N)c2cc1OC", "kinase still bound, per cent of control, %": 36}

Provide reported kinase still bound, per cent of control for each item, in the same order as listed.
1. CCc1nc(-c2cccc(C)c2)c(-c2ccnc(NC(=O)c3ccccc3)c2)s1
2. CS(=O)(=O)N1CCN(Cc2cc3nc(-c4cccc5[nH]ncc45)nc(N4CCOCC4)c3s2)CC1
3. C=CC(=O)Nc1cccc(Nc2nc(N[C@H]3CC[C@H](N(C)C)CC3)nc3c2ncn3C(C)C)c1
4. O=C1Nc2ccc(I)cc2/C1=C/c1cc(Br)c(O)c(Br)c1

-- reply
95
19
100
76

###

biological target: MAP3K9 (human) (UniProt P80192); experiment: KINOMEscan competition binding; details: compound 10.0 µM
Sequence (P80192 whole entry, looked up): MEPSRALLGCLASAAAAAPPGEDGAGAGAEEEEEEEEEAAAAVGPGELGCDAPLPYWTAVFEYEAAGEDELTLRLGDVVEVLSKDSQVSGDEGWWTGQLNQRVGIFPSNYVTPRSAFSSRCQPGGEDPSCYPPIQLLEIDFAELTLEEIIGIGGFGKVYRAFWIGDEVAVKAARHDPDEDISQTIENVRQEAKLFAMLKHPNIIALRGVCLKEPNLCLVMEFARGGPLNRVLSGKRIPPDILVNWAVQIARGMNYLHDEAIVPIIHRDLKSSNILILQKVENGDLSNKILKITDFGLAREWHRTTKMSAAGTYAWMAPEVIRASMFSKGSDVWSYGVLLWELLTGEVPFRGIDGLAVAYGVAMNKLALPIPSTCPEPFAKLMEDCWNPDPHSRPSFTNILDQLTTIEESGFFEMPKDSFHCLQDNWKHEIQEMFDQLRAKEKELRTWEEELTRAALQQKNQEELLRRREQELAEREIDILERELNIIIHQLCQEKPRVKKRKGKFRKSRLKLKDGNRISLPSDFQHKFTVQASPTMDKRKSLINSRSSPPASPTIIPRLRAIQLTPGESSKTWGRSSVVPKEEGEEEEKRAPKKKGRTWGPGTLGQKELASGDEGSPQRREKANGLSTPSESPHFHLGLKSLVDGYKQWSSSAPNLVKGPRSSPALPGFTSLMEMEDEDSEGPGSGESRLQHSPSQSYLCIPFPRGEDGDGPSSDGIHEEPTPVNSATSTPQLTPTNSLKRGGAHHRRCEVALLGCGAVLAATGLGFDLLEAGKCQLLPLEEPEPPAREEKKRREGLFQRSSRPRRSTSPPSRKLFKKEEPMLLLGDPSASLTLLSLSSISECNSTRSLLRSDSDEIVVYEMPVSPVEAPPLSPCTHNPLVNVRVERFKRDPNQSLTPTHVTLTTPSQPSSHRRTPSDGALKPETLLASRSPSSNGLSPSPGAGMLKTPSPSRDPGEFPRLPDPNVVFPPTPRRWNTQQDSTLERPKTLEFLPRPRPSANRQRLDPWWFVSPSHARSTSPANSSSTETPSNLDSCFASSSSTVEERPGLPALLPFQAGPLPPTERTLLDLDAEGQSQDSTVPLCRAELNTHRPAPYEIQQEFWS
Please go through the items and note down their kinase still bound, per cent of control.
Give bare numbers, in %.

Please review the following examples before continuing.
{"STRUCTURE_STRING": "C=CC(=O)Nc1ccc(C(=O)c2sc(Nc3ccc(N4CCN(C)CC4)cc3OC)nc2N)cc1", "SUBJECT_OF_TEST": "MAP3K9 (human) (UniProt P80192)", "UNITS_TEXT": "%", "kinase still bound, per cent of control": 93}
{"STRUCTURE_STRING": "N#C/C(=C1/Nc2ccccc2S1)c1ccnc(NCCc2cccnc2)n1", "SUBJECT_OF_TEST": "MAP3K9 (human) (UniProt P80192)", "UNITS_TEXT": "%", "kinase still bound, per cent of control": 74}
{"STRUCTURE_STRING": "COc1cc(N2CCC(C(N)=O)CC2)ccc1Nc1nc(N)c(Cl)c(Nc2ccccc2S(=O)(=O)C(C)C)n1", "SUBJECT_OF_TEST": "MAP3K9 (human) (UniProt P80192)", "UNITS_TEXT": "%", "kinase still bound, per cent of control": 100}
{"STRUCTURE_STRING": "CC(=O)c1c(C)c2cnc(Nc3ccc(N4CCNCC4)cn3)nc2n(C2CCCC2)c1=O", "SUBJECT_OF_TEST": "MAP3K9 (human) (UniProt P80192)", "UNITS_TEXT": "%", "kinase still bound, per cent of control": 78}

Please look at the following compound next.
kinase still bound, per cent of control reported for this compound `N#Cc1cc(-c2ccnc(Nc3ccc(-n4cnc(-c5cccnc5)n4)cc3)n2)cc(N2CCOCC2)c1` : 22

###

Please go through the items and note down their kinase still bound, per cent of control.
biological target: CAMK1G (human) (UniProt Q96NX5); test: KINOMEscan competition binding; conditions: compound 10.0 µM
Sequence (Q96NX5 whole entry, looked up): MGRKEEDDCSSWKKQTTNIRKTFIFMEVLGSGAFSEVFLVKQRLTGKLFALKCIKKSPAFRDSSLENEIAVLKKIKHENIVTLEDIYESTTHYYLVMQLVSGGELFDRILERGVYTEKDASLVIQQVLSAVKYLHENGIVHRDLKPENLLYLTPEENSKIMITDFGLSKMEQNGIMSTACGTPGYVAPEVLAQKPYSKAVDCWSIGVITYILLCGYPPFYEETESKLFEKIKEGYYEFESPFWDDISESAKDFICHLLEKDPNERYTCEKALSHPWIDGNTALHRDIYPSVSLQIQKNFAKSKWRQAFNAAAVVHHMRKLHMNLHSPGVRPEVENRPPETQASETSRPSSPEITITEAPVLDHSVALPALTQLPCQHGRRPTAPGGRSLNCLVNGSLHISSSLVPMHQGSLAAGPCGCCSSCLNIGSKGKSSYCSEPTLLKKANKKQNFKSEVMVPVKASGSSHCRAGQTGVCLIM
Give bare numbers, in %.

{"STRUCTURE_STRING": "C=CC(=O)Nc1ccc(C(=O)c2sc(Nc3ccc(N4CCN(C)CC4)cc3OC)nc2N)cc1", "REPORTED_RESULT": 8.2}
{"STRUCTURE_STRING": "O=c1[nH]c2ccccc2n1C1CCN(Cc2ccc(-c3nc4cc5[nH]cnc5cc4nc3-c3ccccc3)cc2)CC1", "REPORTED_RESULT": 90}
{"STRUCTURE_STRING": "Cc1cn(-c2cc(C(=O)Nc3ccc(C)c(NC(=O)c4ccno4)c3)cc(C(F)(F)F)c2)cn1", "REPORTED_RESULT": 100}

kinase still bound, per cent of control reported for this compound `CCOc1cc(N2CCC(O)CC2)ccc1Nc1ncc2c(n1)N(C)c1ccccc1C(=O)N2C` : 100

###

target: CSF1R (human) (UniProt P07333); experiment: KINOMEscan competition binding; conditions: compound 10.0 µM
Sequence (P07333 whole entry, looked up): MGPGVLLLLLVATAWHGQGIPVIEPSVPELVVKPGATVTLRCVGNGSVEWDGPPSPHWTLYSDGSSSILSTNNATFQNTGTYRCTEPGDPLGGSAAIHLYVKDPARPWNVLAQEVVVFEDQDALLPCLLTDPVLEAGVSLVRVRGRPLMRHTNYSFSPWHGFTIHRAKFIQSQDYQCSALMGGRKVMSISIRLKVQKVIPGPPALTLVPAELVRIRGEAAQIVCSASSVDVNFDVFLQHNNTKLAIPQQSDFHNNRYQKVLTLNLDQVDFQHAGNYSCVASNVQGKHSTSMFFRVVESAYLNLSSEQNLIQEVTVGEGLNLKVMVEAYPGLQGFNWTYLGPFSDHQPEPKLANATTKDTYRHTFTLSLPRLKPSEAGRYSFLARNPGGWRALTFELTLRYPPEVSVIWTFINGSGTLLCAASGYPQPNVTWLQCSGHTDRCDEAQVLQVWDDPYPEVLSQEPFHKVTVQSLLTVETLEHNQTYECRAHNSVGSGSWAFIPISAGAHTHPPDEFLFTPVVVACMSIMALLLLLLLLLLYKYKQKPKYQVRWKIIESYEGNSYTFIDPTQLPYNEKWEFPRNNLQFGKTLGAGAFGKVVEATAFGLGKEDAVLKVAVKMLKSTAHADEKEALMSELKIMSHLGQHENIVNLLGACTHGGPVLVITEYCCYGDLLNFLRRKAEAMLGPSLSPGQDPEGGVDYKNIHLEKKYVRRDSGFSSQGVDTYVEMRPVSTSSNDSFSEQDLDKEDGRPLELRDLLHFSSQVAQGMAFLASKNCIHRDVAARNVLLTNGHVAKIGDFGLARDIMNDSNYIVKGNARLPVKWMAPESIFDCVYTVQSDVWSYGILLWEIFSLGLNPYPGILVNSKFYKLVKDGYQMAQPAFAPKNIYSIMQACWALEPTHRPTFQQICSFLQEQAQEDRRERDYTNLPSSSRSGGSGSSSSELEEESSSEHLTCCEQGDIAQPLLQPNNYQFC
EXPERIMENTAL_ENDPOINT: kinase still bound, per cent of control (%)
One number for each entry, in %.

Please review the following examples before continuing.
{"COMPOUND": "COc1ccc(N(C(=O)Oc2cc(C(=O)Nc3cccc(C(F)(F)F)c3)ccc2C)c2ccnc(Nc3ccc(N4CCN(C)CC4)cc3)n2)c(OC)c1", "REPORTED_RESULT": 0.35}
{"COMPOUND": "Cc1cn(-c2cc(C(=O)Nc3ccc(C)c(NC(=O)c4ccno4)c3)cc(C(F)(F)F)c2)cn1", "REPORTED_RESULT": 0.2}
{"COMPOUND": "COc1cc2c(Nc3ccc(NC(=O)c4ccccc4)cc3)ncnc2cc1OCCCN1CCOCC1", "REPORTED_RESULT": 16}
{"COMPOUND": "COc1cc(C)c(Sc2cnc(NC(=O)c3ccc(CNC(C)C(C)C)cc3)s2)cc1C(=O)N1CCN(C(C)=O)CC1 (stereo unspecified)", "REPORTED_RESULT": 100}
{"COMPOUND": "CCN(CCO)CCCOc1ccc2c(Nc3cc(CC(=O)Nc4cccc(F)c4)[nH]n3)ncnc2c1", "REPORTED_RESULT": 5}

The reported kinase still bound, per cent of control value, CSF1R (human) (UniProt P07333), for `CNC(=O)Nc1ccc(-c2nc(N3CC4CCC(C3)O4)c3cnn(C4CCC5(CC4)OCCO5)c3n2)cc1` reads 100

###

Please go through the items and note down their kinase still bound, per cent of control.
biological target: PLK4 (human); assay: KINOMEscan competition binding; conditions: compound 10.0 µM

Please review the following examples before continuing.
{"COMPOUND": "C=CC(=O)Nc1ccc(C(=O)c2sc(Nc3ccc(N4CCN(C)CC4)cc3OC)nc2N)cc1", "SUBJECT_OF_TEST": "PLK4 (human)", "REPORTED_RESULT": "43%"}
{"COMPOUND": "N#C/C(=C1/Nc2ccccc2S1)c1ccnc(NCCc2cccnc2)n1", "SUBJECT_OF_TEST": "PLK4 (human)", "REPORTED_RESULT": "68%"}
{"COMPOUND": "COc1cc(C)c(Sc2cnc(NC(=O)c3ccc(CNC(C)C(C)C)cc3)s2)cc1C(=O)N1CCN(C(C)=O)CC1 (stereo not drawn)", "SUBJECT_OF_TEST": "PLK4 (human)", "REPORTED_RESULT": "100%"}
{"COMPOUND": "COc1cc2ncnc(Nc3cccc(Cl)c3)c2cc1OC", "SUBJECT_OF_TEST": "PLK4 (human)", "REPORTED_RESULT": "30%"}
{"COMPOUND": "CNC(=O)Nc1ccc(-c2nc(N3CC4CCC(C3)O4)c3cnn(C4CCC5(CC4)OCCO5)c3n2)cc1", "SUBJECT_OF_TEST": "PLK4 (human)", "REPORTED_RESULT": "75%"}
{"COMPOUND": "CCN1CCN(Cc2ccc(NC(=O)c3ccc(C)c(/C=C/c4cnc5[nH]ccc5c4OC)c3)cc2C(F)(F)F)CC1", "SUBJECT_OF_TEST": "PLK4 (human)", "REPORTED_RESULT": "59%"}
{"COMPOUND": "COc1ccc(N(C(=O)Oc2cc(C(=O)Nc3cccc(C(F)(F)F)c3)ccc2C)c2ccnc(Nc3ccc(N4CCN(C)CC4)cc3)n2)c(OC)c1", "SUBJECT_OF_TEST": "PLK4 (human)", "REPORTED_RESULT": "100%"}

kinase still bound, per cent of control reported for this compound `CCCS(=O)(=O)Nc1ccc(F)c(C(=O)c2c[nH]c3ncc(Cl)cc23)c1F` : 27%

###

target: DAPK3 (human); assay: KINOMEscan competition binding; conditions: compound 10.0 µM
EXPERIMENTAL_ENDPOINT: kinase still bound, per cent of control
# output: number + unit

{"COMPOUND": "O=c1[nH]c2ccccc2n1C1CCN(Cc2ccc(-c3nc4cc5[nH]cnc5cc4nc3-c3ccccc3)cc2)CC1", "SUBJECT_OF_TEST": "DAPK3 (human)", "kinase still bound, per cent of control": "85%"}
{"COMPOUND": "COc1ccc(N(C(=O)Oc2cc(C(=O)Nc3cccc(C(F)(F)F)c3)ccc2C)c2ccnc(Nc3ccc(N4CCN(C)CC4)cc3)n2)c(OC)c1", "SUBJECT_OF_TEST": "DAPK3 (human)", "kinase still bound, per cent of control": "100%"}
{"COMPOUND": "C=CC(=O)Nc1ccc(C(=O)c2sc(Nc3ccc(N4CCN(C)CC4)cc3OC)nc2N)cc1", "SUBJECT_OF_TEST": "DAPK3 (human)", "kinase still bound, per cent of control": "2.6%"}

Provide reported kinase still bound, per cent of control for each item, in the same order as listed.
1. N#Cc1cc(-c2ccnc(Nc3ccc(-n4cnc(-c5cccnc5)n4)cc3)n2)cc(N2CCOCC2)c1
2. COc1cc(N2CCC(C(N)=O)CC2)ccc1Nc1nc(N)c(Cl)c(Nc2ccccc2S(=O)(=O)C(C)C)n1
3. CCc1nc(-c2cccc(C)c2)c(-c2ccnc(NC(=O)c3ccccc3)c2)s1
4. Cc1cn(-c2cc(C(=O)Nc3ccc(C)c(NC(=O)c4ccno4)c3)cc(C(F)(F)F)c2)cn1

-- reply
1: 73%; 2: 100%; 3: 83%; 4: 100%

kinase still bound, per cent of control reported for this compound COc1cc(C)c(Sc2cnc(NC(=O)c3ccc(CNC(C)C(C)C)cc3)s2)cc1C(=O)N1CCN(C(C)=O)CC1 (stereo not drawn) : 100%
